Origin of measurements: patent US20220396624A1

# system_name: T1, fusion protein of the extracellular region of human PD-L1 and human IgG1-FC (human, UniProt Q9NZQ7 19-238)
# T1 construct: PD-L1 is put first by convention; also called fusion protein PD-L1 (hFC tag)
# run_description: FACS blocking of PD-L1-hFc binding to 293T-h-PD1 cells, hybridoma supernatant

binder	IC50
murine antibody 15G10 (A2) (antibody, V domains shown, Mouse hybridoma antibody (subclone 15G10-3), tested as culture supernatant; Only variable domains printed; also called 15G10-3) VH: QVQLKQSGPELVKPGASVKTSCKASGYTFTNYVVHWVKQNPGQGLEWIGYVNPNNDGTIFNEKFKDKAILTSDKSSSTAYMELSSLTSEDSAVYYCARSPFAHWGQGTLVTVSA VL: QIVLTQSPASLTVSLGQRATISCSASESVDFYGTSLMQWFQQKPGQPPKLLVYTASNVDSEVPARFSGSGSGTDFSLNIHPVEEDDIAMYFCHQTRKVPYTFGGGTKLEIK	4 µg/mL
murine antibody 13C9 (A3) (antibody, V domains shown, Mouse hybridoma antibody (subclone 13C9-1), tested as culture supernatant or purified; Only variable domains printed (the VL as printed ends in RA); also called 13C9-1) VH: QVQLKQSGAGLVKPGASVKLSCKASGYIFTEYIIHWVKQRSGQGLEWIGWFYPGSDNIKYNEKFKDKATLTADKSSSTVYMELSRLTSEDSAVYFCARHETGYFFDYWGQGTTLTVSS VL: DIVITQSPAIMSASPGEKVTMTCSASSSVSKMNWYQQKSGTSPKRWIYDTSKLASGVPSRFSGSGSGTSYSLTISSMEAEDAATYYCQQWSSNPLTFGSGTKLELKR	1.95 µg/mL
